Origin of the recorded values: patent US5190961A

System: Helicobacter pylori
experiment description: Antimicrobial activity against Helicobacter pylori (MIC)
Type: cell-based, Helicobacter pylori strain NCTC 11916
test conditions: NCTC11916, strain NCTC 11916, twofold dilution, 37° C., 3-5 days, O2 about 5%

# smiles text, MIC
measured = [
    ("O=C(CCCNC(=S)NCc1ccco1)NCCCOc1cccc(CN2CCCCC2)c1", "6.25 µg/mL"),
    ("O=C(CCCCCNC(=S)Nc1ccccc1)NCCCOc1cccc(CN2CCCCC2)c1", "12.5 µg/mL"),
    ("O=C(CCCNC(=S)NC1CCCCC1)NCCCOc1cccc(CN2CCCCC2)c1", "6.25 µg/mL"),
    ("Cc1ccccc1NC(=S)NCCCC(=O)NCCCOc1cccc(CN2CCCCC2)c1", "6.25 µg/mL"),
    ("COc1cc(NC(=S)NCCCC(=O)NCCCOc2cccc(CN3CCCCC3)c2)cc(OC)c1OC", "6.25 µg/mL"),
    ("O=C(CCCNC(=S)Nc1ccccc1)NCCCOc1cccc(CN2CCCC2)c1", "6.25 µg/mL"),
    ("O=C(CCCNC(=S)Nc1cccnc1)NCCCOc1cccc(CN2CCCCC2)c1", "12.5 µg/mL"),
    ("COc1ccccc1NC(=S)NCCCC(=O)NCCCOc1cccc(CN2CCCCC2)c1", "6.25 µg/mL"),
    ("O=C(CCCNC(=S)Nc1ccc(Cl)cc1)NCCCOc1cccc(CN2CCCCC2)c1", "6.25 µg/mL"),
    ("COc1cccc(C)c1NC(=S)NCCCC(=O)NCCCOc1cccc(CN2CCCCC2)c1", "6.25 µg/mL"),
    ("CCCCOc1ccccc1NC(=S)NCCCC(=O)NCCCOc1cccc(CN2CCCCC2)c1", "6.25 µg/mL"),
]
